Where do these numbers come from? They come from patent US20250129078A1.

Target: ErbB2 V777L (Homo sapiens (Human), UniProt P04626, V777L)
Sequence (P04626 23-1255 V777L): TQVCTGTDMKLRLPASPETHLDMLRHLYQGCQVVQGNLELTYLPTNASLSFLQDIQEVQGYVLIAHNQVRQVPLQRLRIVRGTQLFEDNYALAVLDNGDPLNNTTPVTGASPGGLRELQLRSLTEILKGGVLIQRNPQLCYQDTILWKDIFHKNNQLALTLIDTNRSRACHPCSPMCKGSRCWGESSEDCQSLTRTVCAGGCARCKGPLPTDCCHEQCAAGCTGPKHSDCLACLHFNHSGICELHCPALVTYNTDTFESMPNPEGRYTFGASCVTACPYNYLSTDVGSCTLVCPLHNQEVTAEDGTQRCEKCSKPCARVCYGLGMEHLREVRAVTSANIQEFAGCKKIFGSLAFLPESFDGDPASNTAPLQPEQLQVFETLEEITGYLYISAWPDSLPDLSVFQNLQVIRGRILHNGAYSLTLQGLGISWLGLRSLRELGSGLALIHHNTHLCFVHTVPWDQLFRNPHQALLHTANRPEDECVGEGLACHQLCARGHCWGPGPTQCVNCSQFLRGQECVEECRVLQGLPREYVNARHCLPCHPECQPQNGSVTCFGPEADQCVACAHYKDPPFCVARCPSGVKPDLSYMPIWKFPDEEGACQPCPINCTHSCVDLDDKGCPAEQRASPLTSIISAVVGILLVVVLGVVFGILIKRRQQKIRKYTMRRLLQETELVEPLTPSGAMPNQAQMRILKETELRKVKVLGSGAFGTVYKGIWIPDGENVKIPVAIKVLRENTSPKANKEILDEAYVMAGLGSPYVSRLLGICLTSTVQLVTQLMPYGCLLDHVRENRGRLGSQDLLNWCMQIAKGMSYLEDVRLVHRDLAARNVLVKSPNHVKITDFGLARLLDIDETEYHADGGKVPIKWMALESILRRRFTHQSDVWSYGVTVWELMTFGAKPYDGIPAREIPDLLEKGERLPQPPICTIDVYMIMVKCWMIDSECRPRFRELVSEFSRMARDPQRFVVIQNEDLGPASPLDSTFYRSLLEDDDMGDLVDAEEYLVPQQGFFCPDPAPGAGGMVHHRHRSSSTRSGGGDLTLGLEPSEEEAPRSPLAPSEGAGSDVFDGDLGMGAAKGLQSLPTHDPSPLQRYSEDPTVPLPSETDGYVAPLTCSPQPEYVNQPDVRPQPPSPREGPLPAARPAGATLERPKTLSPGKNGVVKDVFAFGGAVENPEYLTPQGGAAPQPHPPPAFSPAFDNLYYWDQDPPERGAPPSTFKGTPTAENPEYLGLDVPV
Assay: ErbB enzyme assay (CisBio HTRF-KinEASE-TK), ErbB2 V777L
Format: biochemical
pIC50: −log10 of the molar value.
reported_property: pIC50

Take a look at these entries with their results.
> print(dat)
                            compound.smiles      reported
1  C=CC(=O)N1CCN(c2ncc3ncnc(Nc4cc(Cl)c(Oc5ccc6c(c5)nnn6C)cc4F)c3n2)CC1  7.00 to 7.30
2  C=CC(=O)N1CCN(c2ncc3ncnc(Nc4cc(C)c(Oc5cc(F)c6c(c5)nnn6C)cc4OC)c3n2)C[C@H]1C  6.00 to 6.30
3  C=CC(=O)NC1CCN(c2ccc3ncnc(Nc4ccc(Oc5ccc6c(c5)nnn6C)c(C)c4)c3n2)CC1  6.30 to 7.00
4  C=CC(=O)NC1(C)CCN(c2ccc3ncnc(Nc4ccc(Oc5ccc6c(c5)nnn6C)c(C)c4F)c3n2)CC1  6.30 to 7.00
5  C=CC(=O)N1CCN(c2ncc3ncnc(Nc4ccc(Oc5ccc6c(c5)ncn6C(F)F)c(C)c4F)c3n2)C[C@H]1C  7.00 to 7.30

Q) What value of pIC50 has been recorded for this entry: C=CC(=O)N(C)[C@H]1CCCN(c2ncc3ncnc(Nc4ccc(Oc5ccc6c(c5)nnn6C)c(C)c4)c3n2)C1
A) 6.30 to 7.00

Q) What value of pIC50 has been recorded for this entry: C=CC(=O)N1CCN(c2ccc3ncnc(Nc4ccc(Oc5ccc6c(c5)nnn6C)c(C)c4)c3n2)C[C@@H]1C1CC1
A) 6.30 to 7.00

Q) What value of pIC50 has been recorded for this entry: C=CC(=O)N1CCC12CN(c1ncc3ncnc(Nc4ccc(Oc5ccc6c(c5)nnn6C)c(C)c4F)c3n1)C2
A) 6.30 to 7.00

Q) What value of pIC50 has been recorded for this entry: C=CC(=O)N1CCN(c2ncc3ncnc(Nc4ccc(Oc5ccc6c(c5)nnn6C)cc4F)c3n2)CC1
A) 6.30 to 7.00

Q) What value of pIC50 has been recorded for this entry: C=CC(=O)N[C@@H]1CCCN(c2ncc3ncnc(Nc4ccc(Oc5ccc6c(c5)nnn6C)c(C)c4F)c3n2)C1
A) 7.00 to 7.30

Q) What value of pIC50 has been recorded for this entry: C=C(COC)C(=O)NC1CCN(c2ncc3ncnc(Nc4ccc(Oc5ccc6c(c5)nnn6C)c(C)c4)c3n2)CC1
A) 7.00 to 7.30

* * *

pIC50: −log10 of the molar value. Structures can show the parent of a compound that is named as a salt.
The reader will find pIC50 measurements below, all made with EGFR WT (Homo sapiens (Human), UniProt P00533).
Sequence (P00533 25-1210): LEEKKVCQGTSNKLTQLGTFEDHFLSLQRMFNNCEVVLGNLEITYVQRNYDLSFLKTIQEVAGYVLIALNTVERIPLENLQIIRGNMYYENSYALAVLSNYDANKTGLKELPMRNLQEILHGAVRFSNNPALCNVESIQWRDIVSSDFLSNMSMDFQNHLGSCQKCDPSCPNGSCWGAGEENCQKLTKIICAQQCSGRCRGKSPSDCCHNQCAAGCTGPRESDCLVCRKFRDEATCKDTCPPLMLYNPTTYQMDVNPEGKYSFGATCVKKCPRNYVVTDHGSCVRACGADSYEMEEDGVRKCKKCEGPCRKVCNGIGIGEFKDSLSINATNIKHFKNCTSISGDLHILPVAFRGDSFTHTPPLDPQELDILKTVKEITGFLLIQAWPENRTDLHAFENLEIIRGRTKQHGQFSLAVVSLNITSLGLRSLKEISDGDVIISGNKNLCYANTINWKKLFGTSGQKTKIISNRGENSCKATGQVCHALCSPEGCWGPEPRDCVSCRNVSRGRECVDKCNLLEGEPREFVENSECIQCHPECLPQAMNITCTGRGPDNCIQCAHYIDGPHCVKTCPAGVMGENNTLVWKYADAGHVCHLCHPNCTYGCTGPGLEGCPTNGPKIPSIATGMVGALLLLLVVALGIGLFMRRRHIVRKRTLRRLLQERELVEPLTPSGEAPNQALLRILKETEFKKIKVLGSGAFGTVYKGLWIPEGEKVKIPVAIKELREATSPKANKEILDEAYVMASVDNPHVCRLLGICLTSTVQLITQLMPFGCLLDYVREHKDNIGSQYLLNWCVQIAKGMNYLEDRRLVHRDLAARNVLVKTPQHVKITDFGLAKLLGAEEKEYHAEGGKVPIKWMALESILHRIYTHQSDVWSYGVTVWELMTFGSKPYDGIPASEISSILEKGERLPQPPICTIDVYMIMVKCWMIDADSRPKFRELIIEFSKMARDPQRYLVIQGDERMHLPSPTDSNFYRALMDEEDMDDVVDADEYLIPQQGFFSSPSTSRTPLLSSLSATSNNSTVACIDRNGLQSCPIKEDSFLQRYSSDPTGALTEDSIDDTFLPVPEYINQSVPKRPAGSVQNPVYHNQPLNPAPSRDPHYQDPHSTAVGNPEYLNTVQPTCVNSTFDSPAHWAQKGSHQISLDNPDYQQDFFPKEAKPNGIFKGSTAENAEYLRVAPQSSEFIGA

compound	pIC50
C=CC(=O)N1CCN(c2ncc3ncnc(Nc4ccc(Oc5ccc6c(c5)nnn6C)c(C)c4)c3n2)CC1 [Compound 5]	6.30 to 7.00
C=CC(=O)N1CC2CC1CN(c1ncc3ncnc(Nc4ccc(Oc5cc(F)c6c(c5)ncn6C)c(C)c4F)c3n1)C2 (stereo not drawn) [Compound 147]	> 7.30
C=CC(=O)N[C@@H]1C[C@@H](C)CN(c2ccc3ncnc(Nc4ccc(Oc5ccc6c(c5)nnn6C)c(C)c4F)c3n2)C1 (single isomer, unassigned) [Compound 338]	6.30 to 7.00
C=CC(=O)N1CCN(c2ncc3ncnc(Nc4ccc(Oc5ccc6c(c5)nnn6C)cc4Cl)c3n2)CC1 [Compound 29]	≤ 6.00
C=CC(=O)N[C@@H]1CCCN(c2ccc3ncnc(Nc4ccc(Oc5ccc6c(c5)nnn6C)c(C)c4F)c3n2)CC1 [Compound 283]	≤ 6.00

Q) What value of pIC50 has been recorded for this entry: C=CC(=O)N1CCN(c2ccc3ncnc(Nc4cc(C)c(Oc5ccc6c(c5)nnn6C)cc4F)c3n2)CC1 [Compound 94]
A) 6.30 to 7.00

Q) What value of pIC50 has been recorded for this entry: C=CC(=O)N[C@@H]1C[C@H](C)CN(c2ccc3ncnc(Nc4ccc(Oc5ccc6c(c5)nnn6C)c(C)c4F)c3n2)C1 (single isomer, unassigned) [Compound 336]
A) ≤ 6.00

Q) What value of pIC50 has been recorded for this entry: C=C(F)C(=O)N1C2C=C(c3ccc4ncnc(Nc5ccc(Oc6ccc7c(c6)nnn7C)c(C)c5)c4n3)CC1CC2 (stereo not drawn) [Compound 411, trifluoroacetate]
A) ≤ 6.00

Q) What value of pIC50 has been recorded for this entry: C=CC(=O)N1CCN(c2ccc3ncnc(Nc4ccc(Oc5ccc6c(c5)ncn6C(F)F)c(C)c4)c3n2)C[C@@H]1C1CC1 [Compound 278]
A) 6.00 to 6.30

Q) What value of pIC50 has been recorded for this entry: C=CC(=O)N1CCN(c2ncc3ncnc(Nc4ccc(Oc5ccc6c(c5)nnn6C(F)F)c(C)c4)c3n2)CC1 [Compound 63]
A) > 7.30

Q) What value of pIC50 has been recorded for this entry: C=CC(=O)N1CC[C@@H](Oc2ncc3ncnc(Nc4ccc(Oc5cc(F)c6c(c5)ncn6C)c(C)c4)c3n2)C1 [Compound 385]
A) 6.30 to 7.00

Q) What value of pIC50 has been recorded for this entry: C=CC(=O)N[C@@H]1CCCCN(c2ccc3ncnc(Nc4ccc(Oc5ccc6c(c5)nnn6C)c(C)c4F)c3n2)C1 [Compound 289]
A) 6.30 to 7.00

* * *

Known pIC50 of a selection of compounds
Target: ErbB2 V777L (Homo sapiens (Human), UniProt P04626, V777L)
Assay: ErbB enzyme assay (CisBio HTRF-KinEASE-TK), ErbB2 V777L
Format: biochemical
Description: In vitro enzyme assays based on CisBio HTRF-KinEASE-TK technology were used to determine compound potencies. […] After another 1 h incubation at ambient temperature, the extent of substrate phosphorylation was determined using a PerkinElmer EnVision multimode plate reader via time-resolved fluorescence dual wavelength detection. The percent of control (POC) was calculated using the ratio of emission at […] to the emission at 620 nm. […]
pIC50: −log10 of the molar value.

Take a look at these entries with their results.
> print(dat)
                            compound.smiles                             system.tested      reported
1  C=CC(=O)N1CCN(c2ccc3ncnc(Nc4cc(F)c(Oc5ccc6c(c5)nnn6C)c(C)c4F)c3n2)CC1(C)C  ErbB2 V777L (Homo sapiens (Human), UniProt P04626, V777L)  6.30 to 7.00
2  C=CC(=O)N(C)[C@H]1C[C@H](Oc2ncc3ncnc(Nc4ccc(Oc5ccc6c(c5)ncn6C)c(C)c4)c3n2)C1  ErbB2 V777L (Homo sapiens (Human), UniProt P04626, V777L)  7.00 to 7.30
3  C=CC(=O)N1CCN(c2ncc3ncnc(Nc4ccc(Oc5cc6nnn(C)c6c(C)c5F)c(C)c4F)c3n2)C[C@H]1C  ErbB2 V777L (Homo sapiens (Human), UniProt P04626, V777L)  7.00 to 7.30
4  C=CC(=O)N1CCN(c2ccc3ncnc(Nc4ccc(Oc5ccc6c(c5)nnn6C)c(C)c4)c3n2)CC[C@H]1C  ErbB2 V777L (Homo sapiens (Human), UniProt P04626, V777L)  6.00 to 6.30

# next compound below
Q) What value of pIC50 has been recorded for this entry: Cc1cc(Nc2ncnc3cnc(N4CCN(C(=O)/C=C/CF)CC4)nc23)ccc1Oc1ccc2c(c1)nnn2C
A) 7.00 to 7.30
